Test system: NCI-H460 lung
procedure-details: NCI tumour cell line growth inhibition, 48 h
Assign TGI to each entry below.

Reference set (10 entries):
>>> measured_result("COc1cc2c3c(c4ccc(O)cc4c2cc1OC)[C@@H](O)[C@@H]1CCCN1C3")
"0.0155 µM"
>>> measured_result("COc1ccc(/C=C(\\C#N)c2ccccn2)cc1OC")
"> 100 µM"
>>> measured_result("COc1ccccc1NC(=O)c1sc2ncn(CCOc3ccccc3)c(=O)c2c1C")
"> 50 µM"
>>> measured_result("CCOC(=O)CN(CC)C(=O)NC12CC3CC(CC(C3)C1)C2")
"558 µM"
>>> measured_result("C#C[C@]1(O)CC[C@H]2[C@@H]3CCC4=C/C(=N/OC(=O)c5cccc6cc7ccccc7nc56)CC[C@@H]4[C@H]3CC[C@@]21CC")
"> 100 µM"
>>> measured_result("C(/C=C(\\Nc1ccccc1)c1ccc2ccccc2c1)=Nc1ccccc1")
"11.9 µM"
>>> measured_result("CCn1c(=O)c2nc(SC)sc2n(-c2ccccc2)c1=S")
"> 100 µM"
>>> measured_result("CCN(CC)C(=O)N[C@@H](CC(C)C)C(=O)NC")
"> 100 µM"
>>> measured_result("CCCCCCCCCC(=O)Oc1ccc(/C(=C(/C)c2ccccc2)c2ccc(OCCN3CCCC3)cc2)cc1")
"15.9 µM"
>>> measured_result("O=C(/C=C/c1ccco1)Nc1ncc(Cc2cc(Cl)ccc2Cl)s1")
"> 100 µM"

Input line: I am curious: what TGI value has been reported for Nc1nc(SCC#CCCl)c2[nH]cnc2n1 ?
Output line: 16.7 µM

* * *

Assign TGI to each entry below.
System: OVCAR-4 ovarian
procedure-details: NCI tumour cell line growth inhibition, 48 h
Give bare numbers, in µM.

>>> measured_result("O=C1c2cccc3cc([N+](=O)[O-])cc(c23)C(=O)N1c1ccc(OCCN2CCCC2)cc1")
67.2

Hello, I would appreciate it if you could give TGI for each entry below.
1. O=C(O)CCCCCNCc1cc2cc3c(cc2c2cc(OCc4ccccc4)ccc12)OCO3
2. OC[C@H]1C[C@](O)(c2ccccc2Cl)[C@@H](c2ccccc2Cl)O1
3. N#CC1=C(N)OC2=C(CCCc3ccc([N+](=O)[O-])cc32)C1c1ccc(Cl)cc1 (stereo not given)
4. COc1cc2c3c(c4ccc(O)cc4c2cc1OC)[C@@H](O)[C@@H]1CCCN1C3

Output line:
12.6
99.2
28.3
0.00239

* * *

Assign TGI to each entry below.
System: MDA-MB-435
procedure-details: NCI tumour cell line growth inhibition, 48 h
Numbers only, in µM.

Reference set (3 entries):
>>> measured_result("C(/C=C(\\Nc1ccccc1)c1ccc2ccccc2c1)=Nc1ccccc1")
1.27
>>> measured_result("CCCCCCCCCC(=O)Oc1ccc(/C(=C(/C)c2ccccc2)c2ccc(OCCN3CCCC3)cc2)cc1")
14.1
>>> measured_result("O=C1N[C@@H]([C@H]2CC[C@H](Cl)CN2)C(=O)N[C@H]1[C@H]1CC[C@H](Cl)CN1")
32

Hello, I would appreciate it if you could give TGI for each entry below.
1. Cc1ccc(C)c(N2CCN(c3ccncc3N)CC2)c1
2. CC[C@H](C)[C@H](NC(=O)CN(C)C)C(=O)N(C)[C@H](C[C@@H](OC(C)=O)c1nc(C(=O)NC23C4C5C2C2C3C4C52C(=O)OC)cs1)C(C)C (stereo not given in full)
3. O=C1c2ccccc2-c2cn(Cc3ccccc3)c3cccc(c23)C1c1cccnc1 (stereo not given)
4. Cc1c(CCCl)c(Cl)n2c(nc3ccccc32)c1C#N

Output line:
1. 36.3
2. 1.07
3. 6.13
4. 2.22
